// apparent KD of K4 kissing-loop reporter lookup, one value per entry
Tested on: K4 kissing-loop RNA reporter;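 further: bound reporter read as fluorescence of individual clusters on recovered sequencing chips by microscopy, with normalized cluster intensities fitted with a binding model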
assayProcedure: apparent KD of K4 kissing-loop reporter; higher = weaker reporter binding
experimentalContext: Eterna round: R107; input ligand: arginine 13.2 mM
Please state the figure in nM; there is no need to write the unit.

Worked examples, 2 sequences total:
sequenceInput: UGUCAUUGGUCUGAUACCAGUACCCUUGGCAGCCAAGGAGUGAUGUUCCAAGGAUACCAGUGCCCUUGGCAGCAGACCGAUGACU [TheoBS 12 #DoubleAptamer #SwitchBubble]
readoutValue: 563
//
sequenceInput: UGUCAUUGGUCUGAUACCAGUUAGACCGAUAGGUCAAAACUGGAGUGAUGUUCCCAAAAUAACCCUUGGCAGCAGACCGAUGACU [TheoBS 3 #SwitchBubble #StaticStem]
readoutValue: 149

Moving on to another sequence below.
What does the record list as apparent KD of K4 kissing-loop reporter for GGUGGCGUUGUUGACAGCUCACCACGAGCCAAGGAUAUAGUUUCUUCUAGAAGGUGGAAUGACAAGUGAUGUUUGUACGACUGCU [theeternabot_exclusion_KL_FMN_A_28] ? 233
